Biological target: Aspartate--tRNA(Asp/Asn) ligase (Mycobacterium tuberculosis (strain ATCC 25618 / H37Rv))
Assay: Assay for Asp RNA synthetase-1 from Mycobacterium tuberculosis
Assay type: functional
Parameters: scale not given: in the data most compounds retested in dose-response had high values
Conditions: 30 µM
Readout Name: Percent Effect
Kindly report the value followed by its unit.

| Compound | Measurement |
| --- | --- |
| Cc1ccccc1OCCC(=O)N1CCCC(n2cncn2)C1 (stereo unspecified) | -3.32% |

Look at this compound and give its reported Percent Effect. COc1cccc(N2CCN(CC(O)c3ccc(C)cc3)CC2)c1 (stereo unspecified)
8.45%

Query Cc1n[nH]c(C)c1C1COCCN1C(=O)Cc1cccc(F)c1 (stereo unspecified) next
3.85%

Query O=C(c1ccc[nH]1)N1CCn2cc(Cn3cncn3)nc2C1 next
1.43%

Query Cc1ccc(NC2CCN(C(=O)COCC(F)(F)F)CC2)nn1 next
-0.48%

Query C[C@H]1C(=O)NC[C@H]2CN(Cc3ccccc3)C[C@H]21 next
0.819%

Query O=C1[C@H]2CC[C@H](CN(S(=O)(=O)c3ccccc3)C2)N1Cc1cscn1 next
1.23%

Query O=C(c1cnc(C2CC2)s1)N1CCCCC1Cn1cccn1 (stereo unspecified) next
-8.43%

Query CCc1nc(C2CCCN(C(=O)c3cccc4c3ccn4C)C2)no1 (stereo unspecified) next
-0.845%

Query Cc1nc(C)c(CC(=O)N2C[C@H]3CC[C@@H]2CN(C(=O)N(C)C)C3)c(=O)[nH]1 next
0.0987%
